System: SW-620
test name: NCI tumour cell line growth inhibition, 48 h
The source made the active and inactive calls. Rule as the data show it: active = GI50 up to about 1.1 µM and inactive = higher.
Record form. Attribute: GI50. Fill in for each entry.

So for COc1ccc2c3c(c(C(=O)O)oc13)C(CCC(=O)O)CC2 (stereo unspecified) , the logged GI50 turned out to be > 100 µM (inactive)

So for CC(C)C1=Cc2ccc3c(c2C(=O)C1=O)CCCC3 , the logged GI50 turned out to be 3.3 µM (inactive)

So for S=C(N/N=C(/c1ccccc1)c1ccccn1)Nc1ccc(Cl)cc1 , the logged GI50 turned out to be 0.0423 µM (active)

So for COc1ccc(OC)c(-c2cc(O)c3cc4c(cc3n2)OCO4)c1 , the logged GI50 turned out to be 3.83 µM (inactive)

So for CCCCCCCCCc1cc(=O)c2ccc(O)cc2o1 , the logged GI50 turned out to be 67.6 µM (inactive)

So for CCCCN(C)CC(C(C)=O)C(c1ccccc1)c1c(O)c2ccccc2oc1=O (stereo unspecified) , the logged GI50 turned out to be > 100 µM (inactive)

So for CN(C(=O)[C@H](NC(=O)OCc1ccccc1)c1ccccc1)C1CCCCC1N1CCCC1 (stereo partly specified) , the logged GI50 turned out to be > 100 µM (inactive)

So for CN(C)CN(C)c1nc(N(C)C)nc(N(C)CN(C)C)n1 , the logged GI50 turned out to be 23.9 µM (inactive)

So for NC(=O)C(=O)CC(=O)c1ccccc1NC1=CC(=O)C(=O)c2ccccc21 , the logged GI50 turned out to be 43.8 µM (inactive)

So for NCCNCc1c2ccccc2c(CNCCN)c2ccccc12 , the logged GI50 turned out to be 11.1 µM (inactive)

So for NCCCN(CCCN)CCCNCc1c2ccccc2c(CNCCCN(CCCN)CCCN)c2ccccc12 , the logged GI50 turned out to be 13.3 µM (inactive)

###

Test system: UO-31
test name: NCI tumour cell line growth inhibition, 48 h
Active and inactive are the calls of the source. No stated cut-off is given here; in the data, active = GI50 up to about 1.1 µM and inactive = higher.
observed property: GI50

Item CC1=C(C(=O)Nc2ccc(C)cc2)C(c2cccc([N+](=O)[O-])c2)C(C(=O)Nc2ccc(C)cc2)=C(C)N1 was tested on UO-31; the reported GI50 is 22 µM (inactive)

Item CC1=C(C(=O)Nc2ccc([N+](=O)[O-])cc2)C(c2ccccc2O)C(C(=O)Nc2ccc([N+](=O)[O-])cc2)=C(C)N1 was tested on UO-31; the reported GI50 is 15.2 µM (inactive)

Item Cn1c(=O)nc2n(-c3cc(C(F)(F)F)cc(C(F)(F)F)c3)c3ccccc3nc-2c1=O was tested on UO-31; the reported GI50 is > 100 µM (inactive)

Item O=C(O)/C(Cl)=C(\Cl)C(=O)Nc1ccccc1 was tested on UO-31; the reported GI50 is > 100 µM (inactive)

Item CC(C)(C)c1nc2c(o1)/C(=N\c1ccccc1)c1ccccc1C2=O was tested on UO-31; the reported GI50 is 5.89 µM (inactive)

###

Test system: KM12
test name: NCI tumour cell line growth inhibition, 48 h
Activity calls are given as the source filed them. Cut-off read from the data, not from the text of the source: active = GI50 up to about 1.1 µM and inactive = higher.
Hi there, use one of these labels in your reply, thanks! active, inactive

Lookup: What did the test return for COc1cc(C2c3cc4c(cc3[C@@H](OCCN(C)C)C3COC(=O)[C@H]23)OCO4)cc(OC)c1O (some centres undefined) ?
Found: active

Lookup: What did the test return for Cc1c2cccc-2c(OCCOC(=O)n2ccnc2)cc2c1[nH]c1ccccc12 ?
Found: inactive

Lookup: What did the test return for CC(C)=C1C(=O)C[C@]2(C)C[C@H]3O[C@]3(C)CC[C@@H]3O[C@@]3(C)CC[C@@H]12 ?
Found: inactive

Lookup: What did the test return for O=C(O)/C(Cc1ccc([N+](=O)[O-])cc1)=N\O ?
Found: inactive

Lookup: What did the test return for O=C(O)C1C2CC3C(OC(=O)C31)C2Br (centres undefined) ?
Found: inactive

Lookup: What did the test return for Cc1cn(CCCCOC(=O)NC(CCCNC(=N)N)C(=O)O)c(=O)[nH]c1=O (centres undefined) ?
Found: inactive

Lookup: What did the test return for CCOC(=O)c1cc(C#N)[nH]c1-c1ccsc1 ?
Found: inactive

Lookup: What did the test return for COc1ccc(/C=C2/CCCC/C2=N/O)cc1 ?
Found: inactive

Lookup: What did the test return for C=C1C(O)C2(O)OCC34C(CC5C(C)=CC(=O)C(O)C5(C)C23)OC(=O)C(OC(=O)C/C=C/CCCCCCCC)C14 (centres undefined) ?
Found: active
